Each entry below carries its recorded z-score.
# assay text: S6 kinase pathway phospho-S6 level changes – cell-based, A549, cytoblot, luminescence, serum-stimulated, primary screen (AID 1158);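 note: serum-stimulated A549 lung adenocarcinoma cells; signal is phosphorylated S6 detected by cytoblot immunostaining with HRP secondary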
# condition: 5 h, higher = more signal
Lab note: jot the number down without any unit.

Please review the entries below; each comes with its answer.
1. CCOC(=O)C[C@H]1[C@H](OC(=O)c2cc3ccccc3oc2=O)[C@@H](NC(=O)CC(C)C)c2cc(OCCCO)ccc2N1C(=O)Cc1ccc(OC)cc1: -0.0561
2. Cc1ccc(S[C@]2(C(=O)NCc3ccccc3)CC(=O)N(Cc3ccccc3C(F)(F)F)[C@@H]2c2ccc(CO)cc2)cc1: 1.24
3. COCCOC(=O)N1C(=O)[C@@]2(c3cc(C#CCCO)ccc31)[C@H](c1ccccc1OCCO)N1[C@H](c3ccccc3)[C@H](c3ccccc3)OC(=O)[C@H]1[C@@H]2C(N)=O: 0.868

Here is the next item to consider.
The measured z-score associated with `CC(C)N1C(=O)c2ccccc2[C@@H](C(=O)NCC(F)(F)F)[C@@H]1c1ccc(CO)cc1` reads -0.165

---

# assay text: basal CRE-LacZ reporter activity in PC12 – cell-based, unstimulated, primary screen (AID 1145)
# condition: no forskolin, luminescence, 4.5 h, higher = more signal, called active from +8 up or from −8 down
Active and inactive are the calls of the source.
observable: z-score

Some molecules with known z-score results, for comparison:
1. O=C(NCC(O)CO)C1N=C(c2ccc(OCCCO)cc2)N(c2ccccc2)O1 (stereo unspecified): 0.456 (inactive)
2. O=C1C2C=CC(C(O)c3c(F)cccc3Cl)N(Nc3ccc([N+](=O)[O-])cc3)C2C(=O)N1c1ccccc1 (stereo unspecified): -0.0787 (inactive)

// `C=CCOC(=O)[C@@H]1[C@H]2C(=O)O[C@H](c3ccccc3)[C@H](c3ccccc3)N2[C@H](c2ccc(OCCOC(=O)[C@H]3C[C@H]4C(=O)N[C@@H](CCCCN(C)C)C(=O)N4[C@H]3c3ccc(O)cc3)cc2)[C@@]12C(=O)Nc1ccc(I)cc12` : z-score value = -0.118 (inactive)

The molecule listed as CC1CC/C=C\[C@H]2OC34C=CCN(Cn5nnc6ccccc65)C(=O)[C@H]3N(CCCCCCO)C(=O)[C@@H]4C2C(=O)O1 (stereo partly specified) has a reported z-score of -0.0859 (inactive)

// z-score lookup, molecule = `C[C@]1(C(=O)O)c2ccccc2C(=O)N(Cc2cc(F)cc(C(F)(F)F)c2)[C@H]1c1ccc(CO)cc1` , result: -0.502 (inactive)

# z-score of `C=CCNC(=O)[C@H]1[C@@H]2C(=O)O[C@@H](c3ccccc3)[C@@H](c3ccccc3)N2[C@@H](c2ccc(OCCO)cc2)[C@]12C(=O)Nc1ccccc12` = 0.389 (inactive)

---

# experimental system: Follistatin (Homo sapiens) (UniProt P19883)
# Sequence (P19883 whole entry, looked up): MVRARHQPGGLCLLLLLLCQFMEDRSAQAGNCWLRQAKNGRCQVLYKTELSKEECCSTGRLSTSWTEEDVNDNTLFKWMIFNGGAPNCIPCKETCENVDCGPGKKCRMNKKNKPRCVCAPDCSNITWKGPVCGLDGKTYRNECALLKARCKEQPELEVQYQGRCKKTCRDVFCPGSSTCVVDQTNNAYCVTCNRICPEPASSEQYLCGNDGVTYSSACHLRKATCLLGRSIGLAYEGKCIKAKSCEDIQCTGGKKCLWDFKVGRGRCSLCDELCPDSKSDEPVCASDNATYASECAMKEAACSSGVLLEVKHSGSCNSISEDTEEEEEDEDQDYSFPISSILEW
# assay text: FST protein binding to printed compounds – biochemical, small-molecule microarray, 635/667 nm fluorescence, primary screen (AID 1132)
# condition: 635 nm fluorescence, higher = more signal
observable: composite z-score
Write the number on its own, no unit after it.

Below: 6 molecules and their reported composite z-score.
1. O=C1C=C(c2ccccc2)C(=O)C2=C1CC([C@H]1Oc3ccccc3S(=O)(=O)N3CCC[C@@H]13)=CC2: 0.316
2. C=C(/C(=C/C[C@@H](OC(C)=O)c1cccc(OCCO)c1)c1cnc2ccccc2c1)C(C)C: 1.5
3. C=CCC(OC(C)=O)[C@@H]1[C@@H](N(Cc2cccc3ccccc23)C(=O)Cc2ccc(OC)cc2)c2cc(OCCCO)ccc2N1C(=O)c1ccc2ccccc2c1 (some centres not stated): 0.792
4. COc1ccc([Si](C)(C)[C@H]2[C@H](CC(=O)N3Cc4ccccc4C[C@H]3CO)O[C@@]3(C(=O)N(C)c4c(Br)cc(C)cc43)[C@@H]2C)cc1: 1.34
5. CN(C)CCCNC(=O)[C@@H]1c2ccccc2C(=O)N(Cc2ccccc2C(F)(F)F)[C@H]1c1ccc(CO)cc1: 0.0865
6. COc1ccc(C(=O)Nc2ccc3c(c2)[C@@]2(O[C@H](CCO)[C@@H]([Si](C)(C)c4ccc(OC)cc4)[C@@H]2C)C(=O)N3Cc2ccccc2)cc1: 1.25

Next molecule, please.
response.value for Cc1ccccc1C(O)C1C=CC2C(=O)N(c3ccccc3)C(=O)C2N1Nc1ccccc1 (configuration not stated) (field: composite z-score) = 1.3

---

Catalogue of composite z-score values
# assay text: probe aCHRDL2 binding to arrayed compounds – biochemical, biotinylated probe, 635/667 nm fluorescence, primary screen (AID 1100)
# condition: small-molecule microarray, higher = more signal

Kindly note the recorded composite z-score for `NC(=O)NCC#Cc1ccc2c(c1)[C@]1(C(=O)N2)[C@H](c2ccc(OCCO)cc2)N2[C@H](c3ccccc3)[C@H](c3ccccc3)OC(=O)[C@H]2[C@@H]1C(=O)NC[C@H](O)c1ccccc1` , which is 0.909

get_value(item= `CCCC[C@H]1C[C@@H]1[C@@H]1N(C(C)=O)[C@H](c2cccc(OC)c2)CC12CC2` , readout=composite z-score) returns 0.878

---

# experimental system: Torsin-1A (Homo sapiens) (UniProt O14656)
# Sequence (O14656 whole entry, looked up): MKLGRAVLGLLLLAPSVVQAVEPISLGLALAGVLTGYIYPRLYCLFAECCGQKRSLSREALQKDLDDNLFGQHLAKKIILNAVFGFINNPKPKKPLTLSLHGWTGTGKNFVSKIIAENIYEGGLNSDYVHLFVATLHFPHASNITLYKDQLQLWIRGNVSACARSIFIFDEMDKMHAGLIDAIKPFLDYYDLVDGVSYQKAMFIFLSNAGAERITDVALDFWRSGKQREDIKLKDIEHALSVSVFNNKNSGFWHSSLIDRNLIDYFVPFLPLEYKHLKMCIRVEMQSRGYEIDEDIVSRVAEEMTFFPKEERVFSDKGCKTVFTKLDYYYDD
# assay text: TOR1A wild-type binding on microarray – cell lysate, small-molecule microarray, lysate, 635/667 nm, primary screen (AID 1149)
# condition: COS7 hTOR1A-WT lysate, 635 nm fluorescence, higher = more signal
observable: composite z-score
Give the value as a plain number.

1) C=CC[C@]1(C(=O)NCC(O)CO)COC(c2ccc(OCCCO)cc2)=N1 (stereo partly drawn): 0.185
2) CC1CC/C=C\[C@H]2OC34C=CCN(c5ccc(Cl)cc5)C(=O)[C@H]3N(CCCCCCO)C(=O)[C@]4(C)C2C(=O)O1 (stereo partly drawn): -2.03

Next up:
`COCCOC(=O)N1C(=O)[C@@]2(c3cc(C#CCC(C(=O)OC)C(=O)OC)ccc31)[C@H](C(=O)Nc1nc3ccccc3s1)[C@H]1C(=O)O[C@H](c3ccccc3)[C@H](c3ccccc3)N1[C@@H]2c1ccc(OCCO)cc1` on Torsin-1A (Homo sapiens) (UniProt O14656) gives composite z-score = 1.07

---

# assay text: viability profiling in MM1S myeloma cells – cell-based, resazurin fluorescence, basal, 24 h, PK04 Diversity Set, profiling panel (AID 1174);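 note: MM1S multiple myeloma cell line; test concentration not given here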
# condition: higher = more signal, called active from +8 up or from −8 down
Measured z-score, listed per entry for reference.
The answer should be a number; do not append a unit.

Here is how some molecules turned out for z-score.
1) C=C(C)[C@@H]1CC=C(C(O)C2C=CC3C(=O)N(c4ccccc4)C(=O)C3N2Nc2ccc([N+](=O)[O-])cc2)CC1 (some centres undefined): -0.66
2) O=C1O[C@@H](c2ccccc2)[C@@H](c2ccccc2)N2[C@@H](c3ccc(OCCO)cc3)[C@]3(C(=O)Nc4ccc(C#CCCO)cc43)[C@@H](C(=O)O)[C@H]12: 0.314
3) O=C1OCCC=C[C@H]2OC34C=CCN(c5ccc6ccccc6c5)C(=O)[C@H]3N(CCO)C(=O)[C@@H]4C12 (some centres undefined): -1.23
4) COc1ccc([Si](C)(C)[C@H]2[C@H](CCO)O[C@@]3(C(=O)N(Cc4cccc(N5C(=O)c6ccccc6Oc6ccccc65)c4)c4ccccc43)[C@@H]2C)cc1: -2.97
5) O=C1C[C@]2(c3ccc([N+](=O)[O-])cc3)C(=O)N(C3CC3)c3cc(CO)ccc3[C@H]2N1C1CCCCC1: -0.0174

// z-score lookup, molecule = `CN(C)CCCCNC(=O)[C@H]1C[C@H]2C(=O)NCC(=O)N2[C@H]1c1ccc(O)cc1` , result: 0.917

// z-score lookup, molecule = `CCOC(=O)C[C@H]1[C@H](OC(=O)c2cc3ccccc3oc2=O)[C@@H](NC(=O)CC(C)C)c2cc(OCCCO)ccc2N1C(=O)Cc1ccc(OC)cc1` , result: -0.233

Recorded z-score (molecule CCN(CC)c1ccc(N2CC=CC34O[C@@H]5C=CCCOC(=O)C5[C@H]3C(=O)N(C(C)CO)[C@@H]4C2=O)cc1 (some centres undefined) ): 0.172

---

# experimental system: Alpha-bungarotoxin (Bungarus multicinctus) (UniProt P60615)
# Sequence (P60615 whole entry, looked up): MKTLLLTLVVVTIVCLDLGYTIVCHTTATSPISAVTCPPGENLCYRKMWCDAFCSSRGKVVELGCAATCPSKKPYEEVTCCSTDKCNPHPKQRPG
# assay text: compounds binding labelled alpha-BTX control protein – biochemical, small-molecule microarray, Alexa647 label, 635/667 nm fluorescence, artefact control for SMM control protein annotation, profiling panel (AID 1117)
# condition: alpha-BTX-A647 binding fluorescence, higher = more signal
composite z-score class ranges: class 0 = under -0.1, class 1 = from -0.1 up to 0.5, class 2 = 0.5 and over

Consider the worked cases shown below.
1. COC(=O)C1(Cc2ccccc2)C=C2C(=C(C)C(=O)C2C)CN1 (configuration not stated): class 1
2. C=CCC(OC(C)=O)[C@@H]1[C@@H](N(Cc2cc3ccccc3o2)C(=O)c2cccc3ccccc23)c2cc(OCCCO)ccc2N1C(=O)c1ccc2ccccc2n1 (some centres not stated): class 1
3. COC(=O)[C@@]1(Cc2ccccc2)[C@H]2c3cc(C(=O)N(C)C)n(Cc4ccc(S(C)(=O)=O)cc4)c3C[C@H]2CN1C(=O)c1ccccc1: class 2
4. CC(C)NC(=O)[C@@H]1c2ccccc2C(=O)N(Cc2ccccc2C(F)(F)F)[C@H]1c1ccc(CO)cc1: class 0
5. CC1CC/C=C\[C@H]2OC34C=CCN(Cc5ccccc5)C(=O)[C@H]3N(CCCCCCO)C(=O)[C@@H]4C2C(=O)O1 (some centres not stated): class 0

Pick a category. Item: `COc1ccc([Si](C)(C)[C@@H]2[C@@H](CC(=O)N3Cc4ccccc4C[C@H]3CO)O[C@]3(C(=O)N(Cc4ccc(N5CCOC5=O)cc4)c4ccccc43)[C@H]2C)cc1`
class 2

Which bin should I file `Cc1ccc(S[C@]2(C(=O)NC(C)C)CC(=O)N(C3CCCCC3)[C@@H]2c2ccc(CO)cc2I)cc1` under?
class 2

Hi, small favor: classify CC(C)(C)N1CC=CC23O[C@@H]4/C=C\CCCOC(=O)C4[C@H]2C(=O)N(CCCCCO)[C@@H]3C1=O (some centres not stated) by its composite z-score when you get a moment.
class 0

Form: Item = CCCCC(O)C1C=CC2C(=O)N(c3ccccc3)C(=O)C2N1Nc1ccc([N+](=O)[O-])cc1 (configuration not stated) ; Class = ?
class 2

Hi, small favor: classify C=CCC(OC(C)=O)[C@@H]1[C@@H](N(Cc2cccc3ccccc23)C(=O)c2ccc(-c3ccccc3)cc2)c2cc(OCCCO)ccc2N1C(=O)Cc1ccc2ccccc2c1 (some centres not stated) by its composite z-score when you get a moment.
class 1
